Value source: patent US20170217976A1

# tested.system: KOR (Cavia porcellus)
# Construct: from tissue
# Sequence (P41144 whole entry): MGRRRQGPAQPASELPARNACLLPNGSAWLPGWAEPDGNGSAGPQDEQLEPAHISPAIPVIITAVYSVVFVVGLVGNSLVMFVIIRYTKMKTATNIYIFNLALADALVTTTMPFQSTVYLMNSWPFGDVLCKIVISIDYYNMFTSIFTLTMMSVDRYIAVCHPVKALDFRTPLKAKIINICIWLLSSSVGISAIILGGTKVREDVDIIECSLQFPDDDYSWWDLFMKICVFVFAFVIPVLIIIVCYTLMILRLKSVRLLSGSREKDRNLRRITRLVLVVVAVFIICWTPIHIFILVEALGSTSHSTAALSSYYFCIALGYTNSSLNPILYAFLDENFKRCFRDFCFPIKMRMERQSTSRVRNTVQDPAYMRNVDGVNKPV
# protocol.summary: Opioid receptor binding, KOR, guinea pig brain membranes
# test.context: Binding Ki KOR, Table 1-6, guinea pig brain membranes
Grouping by measured Ki is done with the following cut points: LOW: < 5 nM; MID: ≥ 5 nM and < 9 nM; HIGH: ≥ 9 nM

Request: Categorize the following entry: COC12CCC(NC(C(=O)O)C(C)C)C3Oc4c(O)ccc5c4C31CCN(CC1CC1)C2C5 (single isomer, unassigned) [Compound 71]
Result: HIGH

Request: Categorize the following entry: CO[C@@]12CC[C@H](NCC(=O)O)[C@@H]3Oc4c(O)ccc5c4[C@@]31CCN(CC1CC1)[C@@H]2C5 [Compound 61]
Result: LOW

Request: Categorize the following entry: CO[C@@]12CC[C@@H](N[C@@H](C)C(=O)O)[C@@H]3Oc4c(O)ccc5c4[C@@]31CCN(CC1CC1)[C@@H]2C5 [Compound 72]
Result: HIGH

Request: Categorize the following entry: CO[C@@]12CC[C@@H](N[C@@H](CCC(=O)O)C(=O)O)[C@@H]3Oc4c(O)ccc5c4[C@@]31CCN(CC1CC1)[C@@H]2C5 [Compound 75]
Result: HIGH

Request: Categorize the following entry: COC12CCC(NC(C(=O)O)C(C)C)C3Oc4c(O)ccc5c4C31CCN(CC1CC1)C2C5 (single isomer, unassigned) [Compound 69]
Result: LOW

Request: Categorize the following entry: COC12CCC(NC(C(=O)O)C(C)C)C3Oc4c(O)ccc5c4C31CCN(CC1CC1)C2C5 (single isomer, unassigned) [Compound 70]
Result: LOW

Request: Categorize the following entry: CO[C@@]12CC[C@H](NCCCC(=O)O)[C@@H]3Oc4c(O)ccc5c4[C@@]31CCN(CC1CC1)[C@@H]2C5 [Compound 65]
Result: MID

Request: Categorize the following entry: COC12CCC(NC(CCC(=O)O)C(=O)O)C3Oc4c(O)ccc5c4C31CCN(CC1CC1)C2C5 (stereo not shown) [Compound 74]
Result: MID

Request: Categorize the following entry: COC12CCC(NC(C(=O)O)C(C)C)C3Oc4c(O)ccc5c4C31CCN(CC1CC1)C2C5 (single isomer, unassigned) [Compound 68]
Result: LOW

Request: Categorize the following entry: CC[C@H](N[C@@H]1CC[C@@]2(OC)[C@H]3Cc4ccc(O)c5c4[C@@]2(CCN3CC2CC2)[C@H]1O5)C(=O)O [Compound 79]
Result: HIGH

Request: Categorize the following entry: CO[C@@]12CC[C@H](NCCC(=O)O)[C@@H]3Oc4c(O)ccc5c4[C@@]31CCN(CC1CC1)[C@@H]2C5 [Compound 63]
Result: MID

Request: Categorize the following entry: CCO[C@@]12CCC(=O)[C@@H]3Oc4c(O)ccc5c4[C@@]31CCN(CC1CC1)[C@@H]2C5 [Compound 14-OEt-NTX, 14-O-Ethylnaltrexone, reference compound]
Result: LOW
